target_or_test_system: bovine serum albumin (BSA) (Bos taurus, UniProt P02769)
Construct: purchased Sigma Aldrich
Sequence (P02769 25-607): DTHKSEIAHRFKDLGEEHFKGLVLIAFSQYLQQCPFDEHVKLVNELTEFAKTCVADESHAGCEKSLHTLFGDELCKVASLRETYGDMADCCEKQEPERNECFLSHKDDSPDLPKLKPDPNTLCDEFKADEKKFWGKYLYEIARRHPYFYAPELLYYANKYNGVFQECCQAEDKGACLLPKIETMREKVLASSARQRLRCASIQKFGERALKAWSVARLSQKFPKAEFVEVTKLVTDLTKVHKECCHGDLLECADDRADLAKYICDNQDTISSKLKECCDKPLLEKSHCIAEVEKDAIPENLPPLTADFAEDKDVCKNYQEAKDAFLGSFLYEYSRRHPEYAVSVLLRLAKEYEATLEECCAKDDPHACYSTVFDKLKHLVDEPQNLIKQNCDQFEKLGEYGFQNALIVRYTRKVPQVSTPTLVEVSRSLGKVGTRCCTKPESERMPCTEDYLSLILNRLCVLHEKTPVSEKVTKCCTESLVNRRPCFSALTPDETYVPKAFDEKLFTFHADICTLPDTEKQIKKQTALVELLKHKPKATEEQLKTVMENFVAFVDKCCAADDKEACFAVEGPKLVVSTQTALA
assay_procedure: RP TLC on plates impregnated with bovine serum albumin
Type: binding
study_conditions: Table S4, RP plate impregnated with 2 mg/mL BSA; pH 7.4 mobile phase
For each entry below, report its RP (Rf, BSA-impregnated RP plate) value.
Form rule: numeric answer, no unit written next to it.

Looking up COC(=O)[C@@H]1CC2=CC(=O)CC[C@]2(C)[C@@]23O[C@@H]2C[C@@]2(C)[C@@H](CC[C@@]24CCC(=O)O4)[C@H]13 [eplerenone] , I found its RP (Rf, BSA-impregnated RP plate) recorded as 0.85

Per the records, this compound ( CCCc1nn(C)c2c(=O)[nH]c(-c3cc(S(=O)(=O)N4CCN(C)CC4)ccc3OCC)nc12 [sildenafil] ) has RP (Rf, BSA-impregnated RP plate) equal to 0.76

Looking up C=CCN1C[C@H](C(=O)N(CCCN(C)C)C(=O)NCC)C[C@@H]2c3cccc4[nH]cc(c34)C[C@H]21 [carbegoline] , I see its RP (Rf, BSA-impregnated RP plate) listed as 0.68

Looking up CCOCCn1c(C2CCN(CCc3ccc(C(C)(C)C(=O)O)cc3)CC2)nc2ccccc21 [bilastine] , I see its RP (Rf, BSA-impregnated RP plate) listed as 0.72

Looking up CC(=O)Oc1ccccc1C(=O)O [acetylsalicylic acid] , I see its RP (Rf, BSA-impregnated RP plate) listed as 0.99

RP (Rf, BSA-impregnated RP plate) for Cc1ccc(S(=O)(=O)NC(=O)NN2CC3CCCC3C2)cc1 (centres unmarked) [gliclazide] is 0.80

Form: compound = OCCOCCN1CCN(C2=Nc3ccccc3Sc3ccccc32)CC1 [quetiapine] ; RP (Rf, BSA-impregnated RP plate) = 0.69

Entry CCCc1nc2c(C)cc(-c3nc4ccccc4n3C)cc2n1Cc1ccc(-c2ccccc2C(=O)O)cc1 [telmisartan] ; RP (Rf, BSA-impregnated RP plate) = 0.85

###

Please provide measured RP (Rf, BSA-impregnated RP plate) for the entries that follow.
target_or_test_system: bovine serum albumin (BSA) (Bos taurus, UniProt P02769)
Construct: purchased Sigma Aldrich
assay_procedure: RP TLC on plates impregnated with bovine serum albumin
Assay type: binding
study_conditions: Table S4, RP plate impregnated with 2 mg/mL BSA; pH 7.4 mobile phase
Reply with the value as a number alone.

Just so you know, measured RP (Rf, BSA-impregnated RP plate) for O=c1n(CCCN2CCN(c3cccc(Cl)c3)CC2)nc2ccccn12 came out at 0.74

Memo: NC(=O)N1c2ccccc2C=Cc2ccccc21 [carbamazepine] , reported RP (Rf, BSA-impregnated RP plate): 0.84

Value of RP (Rf, BSA-impregnated RP plate) reported for the molecule COc1ccc(CCN2CCC(Nc3nc4ccccc4n3Cc3ccc(F)cc3)CC2)cc1 is 0.62

What the record says about Cc1ncc2n1-c1ccc(Cl)cc1C(c1ccccc1F)=NC2 : RP (Rf, BSA-impregnated RP plate) is 0.66

Summary for this molecule, O=C(O)C1N=C(c2ccccc2)c2cc(Cl)ccc2NC1=O (centres unmarked) [clorazepate] : RP (Rf, BSA-impregnated RP plate) is 0.81

###

Provide the recorded CRP (Rf, control RP plate) for the entries that follow.
assay_procedure: RP TLC on non-impregnated control plates
Format: physicochemical
study_conditions: Table S4, non-impregnated RP plate; acetonitrile/acetate buffer pH 7.4/methanol 60:20:20
# answer = number (no unit)

Recorded result, O=C(O)C1N=C(c2ccccc2)c2cc(Cl)ccc2NC1=O (stereo not drawn) [clorazepate] , CRP (Rf, control RP plate): 0.81

For record CCN1CCCC1CNC(=O)c1cc(S(N)(=O)=O)ccc1OC (stereo not drawn) [sulpiride] the listed CRP (Rf, control RP plate) is 0.85

Form field CRP (Rf, control RP plate), entry CN1CCN(C(=O)OC2c3nccnc3C(=O)N2c2ccc(Cl)cn2)CC1 (stereo not drawn) : 0.84

Lab book: CRP (Rf, control RP plate) of CC(=O)S[C@@H]1CC2=CC(=O)CC[C@]2(C)[C@H]2CC[C@@]3(C)[C@@H](CC[C@@]34CCC(=O)O4)[C@H]12 noted as 0.78

Entry under test: CC1(C)S[C@@H]2[C@H](NC(=O)[C@H](N)c3ccc(O)cc3)C(=O)N2[C@H]1C(=O)O . Its CRP (Rf, control RP plate) was 0.99

CN(C)CCCN1c2ccccc2Sc2ccccc21 yielded CRP (Rf, control RP plate) of 0.51

For record OCCOCCN1CCN(C2=Nc3ccccc3Sc3ccccc32)CC1 the listed CRP (Rf, control RP plate) is 0.73

get_value(item= CC(C)NCC(O)COc1ccc(COCCOC(C)C)cc1 (stereo not drawn) , readout=CRP (Rf, control RP plate)) returns 0.57

The recorded CRP (Rf, control RP plate) for entry COC(=O)[C@@H]1CC2=CC(=O)CC[C@]2(C)[C@@]23O[C@@H]2C[C@@]2(C)[C@@H](CC[C@@]24CCC(=O)O4)[C@H]13 equals 0.84

###

Can you tell me RP (Rf, BSA-impregnated RP plate) for the items I'm about to list?
target_or_test_system: bovine serum albumin (BSA) (Bos taurus, UniProt P02769)
Construct: purchased Sigma Aldrich
assay_procedure: RP TLC on plates impregnated with bovine serum albumin
Format: binding
study_conditions: Table S4, RP plate impregnated with 2 mg/mL BSA; pH 7.4 mobile phase

Simply: Cc1ccc(-c2cc(C(F)(F)F)nn2-c2ccc(S(N)(=O)=O)cc2)cc1 , bovine serum albumin (BSA) (Bos taurus, UniProt P02769), RP (Rf, BSA-impregnated RP plate) = 0.75

Hey, bovine serum albumin (BSA) (Bos taurus, UniProt P02769) data for NC(N)=Nc1nc(CSCCC(N)=NS(N)(=O)=O)cs1 : RP (Rf, BSA-impregnated RP plate) came out at 0.99

Lab note: compound CCN(CC)C(=O)Nc1ccc(OCC(O)CNC(C)(C)C)c(C(C)=O)c1 (stereo not shown) tested on bovine serum albumin (BSA) (Bos taurus, UniProt P02769); recorded RP (Rf, BSA-impregnated RP plate) was 0.79

Hey, bovine serum albumin (BSA) (Bos taurus, UniProt P02769) data for CC[C@H]1OC(=O)[C@H](C)[C@@H](O[C@H]2C[C@@](C)(OC)[C@@H](O)[C@H](C)O2)[C@H](C)[C@@H](O[C@@H]2O[C@H](C)C[C@H](N(C)C)[C@H]2O)[C@](C)(O)C[C@@H](C)CN(C)[C@H](C)[C@@H](O)[C@]1(C)O : RP (Rf, BSA-impregnated RP plate) came out at 0.24

# RP (Rf, BSA-impregnated RP plate) measured on bovine serum albumin (BSA) (Bos taurus, UniProt P02769) for item Clc1cccc(Cl)c1N=C1NCCN1 = 0.68

Field RP (Rf, BSA-impregnated RP plate) (system: bovine serum albumin (BSA) (Bos taurus, UniProt P02769)) for entry CC(C)C[C@H]1C(=O)N2CCC[C@H]2[C@]2(O)O[C@](NC(=O)[C@@H]3C=C4c5cccc6[nH]c(Br)c(c56)C[C@H]4N(C)C3)(C(C)C)C(=O)N12 = 0.70

Tested system bovine serum albumin (BSA) (Bos taurus, UniProt P02769); RP (Rf, BSA-impregnated RP plate) recorded for Cc1cncc(CN2CCC(=C3c4ccc(Cl)cc4CCc4cccnc43)CC2)c1 was 0.52

###

I'd appreciate it if you could supply log k IAM values for the items below.
assay_procedure: HPLC on immobilized artificial membrane column (HPLCIAM)
Format: physicochemical
study_conditions: Table S5, IAM column, pH 7.4
Lab note: jot down the number only; don't add units.

So for CN(C)CCCN1c2ccccc2Sc2ccc(Cl)cc21 , the logged log k IAM turned out to be 1.77

Entry CCCCC(=O)N(Cc1ccc(-c2ccccc2-c2nnn[nH]2)cc1)[C@H](C(=O)O)C(C)C — recorded log k IAM = -1.10

response.value for COc1cc(N)c(Cl)cc1C(=O)NC1CCN(CCCOc2ccc(F)cc2)CC1OC (stereo not drawn) [cisapride] (field: log k IAM) = 1.76

Reported log k IAM for CN1C(C(=O)Nc2ccccn2)=C(O)c2ccccc2S1(=O)=O was -0.79

log k IAM reading for COc1ccnc(C[S+]([O-])c2nc3ccc(OC(F)F)cc3[nH]2)c1OC (stereo not drawn) : 0.34

molecule O=C1CN=C(c2ccccn2)c2cc(Br)ccc2N1 , log k IAM observed: 0.34

Summary for this molecule, O=C(O)COCCN1CCN([C@H](c2ccccc2)c2ccc(Cl)cc2)CC1 : log k IAM is 0.58

Sure, the documented log k IAM for COc1ccc(CCN2CCC(Nc3nc4ccccc4n3Cc3ccc(F)cc3)CC2)cc1 is 1.42

Given item Fc1ccc([C@@H]2CCNC[C@H]2COc2ccc3c(c2)OCO3)cc1 , the value recorded as its log k IAM is 2.06
